test system: Jurkat; assay: cells; parameters: species or system panel of human cancer cell lines; Eurofins OncoPanel proliferation; nuclei count by high-content fluorescence imaging, 10-point dose response; details: Homo sapiens, Jurkat, 72 h; cell count, curve inflection point, 3 days
pEC50: −log10 of the molar value.

[
  {
    "smiles.string": "C[C@@H]1CC(=O)NN=C1c1ccc(NN=C(C#N)C#N)cc1",
    "pEC50": 4.66
  }
]

====

Tested on: Hs 729
Assay: cells
Parameters: species or system panel of human cancer cell lines; Eurofins OncoPanel proliferation; nuclei count by high-content fluorescence imaging, 10-point dose response
Conditions: 72 h; cell count, curve inflection point, 3 days
Protocol: OncoPanel cancer cell proliferation assay was performed by Eurofins Panlabs, Inc. (Missouri, USA). Cancer cells were grown in RPMI 1640, 10% FBS, 2 mM L-alanyl-L-glutamine, 1 mM Na pyruvate, or a special medium. […] After a 3-day incubation period, cells were fixed and stained to allow fluorescence imaging of nuclei. […] Automated fluorescence microscopy was carried out using a Molecular Devices ImageXpress Micro XL high-content imager, and images were collected with a 4X objective. […]
pEC50: −log10 of the molar value.

[
  {
    "smiles.string": "C[C@@H]1CC(=O)NN=C1c1ccc(NN=C(C#N)C#N)cc1",
    "pEC50": "< 4.00"
  }
]

====

test system: BeWo; experiment: cells; parameters: species or system panel of human cancer cell lines; Eurofins OncoPanel proliferation; nuclei count by high-content fluorescence imaging, 10-point dose response; settings: Homo sapiens, BeWo, 72 h; cell count, curve inflection point, 3 days
pEC50: −log10 of the molar value.

[
  {
    "smiles.string": "C[C@@H]1CC(=O)NN=C1c1ccc(NN=C(C#N)C#N)cc1",
    "pEC50": 4.43
  }
]

====

Test system: Hs 683
Test: cells
Set-up: species or system panel of human cancer cell lines; Eurofins OncoPanel proliferation; nuclei count by high-content fluorescence imaging, 10-point dose response
Details: Homo sapiens, Hs 683, 72 h; cell count, curve inflection point, 3 days
Protocol: OncoPanel cancer cell proliferation assay was performed by Eurofins Panlabs, Inc. (Missouri, USA). Cancer cells were grown in RPMI 1640, 10% FBS, 2 mM L-alanyl-L-glutamine, 1 mM Na pyruvate, or a special medium. […] After a 3-day incubation period, cells were fixed and stained to allow fluorescence imaging of nuclei. […] Automated fluorescence microscopy was carried out using a Molecular Devices ImageXpress Micro XL high-content imager, and images were collected with a 4X objective. […]

[
  {
    "smiles.string": "C[C@@H]1CC(=O)NN=C1c1ccc(NN=C(C#N)C#N)cc1",
    "assayed.target": "Hs 683",
    "EC50 / µM": 51.2
  }
]

====

system: SW620; assay: cells; design: species or system panel of human cancer cell lines; Eurofins OncoPanel proliferation; nuclei count by high-content fluorescence imaging, 10-point dose response; conditions: Homo sapiens, SW-620, 72 h; cell count, curve inflection point, 3 days

[
  {
    "smiles.string": "C[C@@H]1CC(=O)NN=C1c1ccc(NN=C(C#N)C#N)cc1",
    "assayed.target": "SW620",
    "reading.unit": "µM",
    "EC50": 18.7
  }
]

====

tested on: Hs 578T; experiment: cells; parameters: species or system panel of human cancer cell lines; Eurofins OncoPanel proliferation; nuclei count by high-content fluorescence imaging, 10-point dose response; details: Homo sapiens, Hs-578T, 72 h; cell count, curve inflection point, 3 days
endpoint.name: EC50

[
  {
    "compound": "C[C@@H]1CC(=O)NN=C1c1ccc(NN=C(C#N)C#N)cc1 [levosimendan]",
    "endpoint.name": "EC50",
    "value.observed": "48 µM"
  }
]

====

tested on: Calu6; test: cells; design: species or system panel of human cancer cell lines; Eurofins OncoPanel proliferation; nuclei count by high-content fluorescence imaging, 10-point dose response; settings: Homo sapiens, Calu-6, 72 h; cell count, 50% of maximum possible response, 3 days

[
  {
    "compound": "C[C@@H]1CC(=O)NN=C1c1ccc(NN=C(C#N)C#N)cc1 [levosimendan]",
    "IC50": "> 100 µM"
  }
]

====

test system: CaOV3; experiment: cells; design: species or system panel of human cancer cell lines; Eurofins OncoPanel proliferation; nuclei count by high-content fluorescence imaging, 10-point dose response; conditions: Homo sapiens, Caov-3, 72 h; cell count, 50% of maximum possible response, 3 days
endpoint.name: IC50 (µM)

[
  {
    "molecule": "C[C@@H]1CC(=O)NN=C1c1ccc(NN=C(C#N)C#N)cc1 [levosimendan]",
    "endpoint.name": "IC50",
    "value.observed": 37.4
  }
]

====

tested on: Daudi; assay: cells; set-up: species or system panel of human cancer cell lines; Eurofins OncoPanel proliferation; nuclei count by high-content fluorescence imaging, 10-point dose response; conditions: Homo sapiens, Daudi, 72 h; cell count, 50% of maximum possible response, 3 days
pIC50: −log10 of the molar value.

[
  {
    "smiles.string": "C[C@@H]1CC(=O)NN=C1c1ccc(NN=C(C#N)C#N)cc1",
    "assayed.target": "Daudi",
    "pIC50": 4.79
  }
]

====

system: TE 381.T; experiment: cells; parameters: species or system panel of human cancer cell lines; Eurofins OncoPanel proliferation; nuclei count by high-content fluorescence imaging, 10-point dose response; settings: TE 381.T, 72 h; cell count, 50% of maximum possible response, 3 days
endpoint.name: IC50 (µM)

[
  {
    "compound": "C[C@@H]1CC(=O)NN=C1c1ccc(NN=C(C#N)C#N)cc1 [levosimendan]",
    "endpoint.name": "IC50",
    "value.observed": 24.5
  }
]

====

Biological target: RIOK1 (serine/threonine-protein kinase RIOK1) (Homo sapiens)
Construct: DiscoverX KinomeScan panel kinase
Sequence (Q9BRS2 1-568): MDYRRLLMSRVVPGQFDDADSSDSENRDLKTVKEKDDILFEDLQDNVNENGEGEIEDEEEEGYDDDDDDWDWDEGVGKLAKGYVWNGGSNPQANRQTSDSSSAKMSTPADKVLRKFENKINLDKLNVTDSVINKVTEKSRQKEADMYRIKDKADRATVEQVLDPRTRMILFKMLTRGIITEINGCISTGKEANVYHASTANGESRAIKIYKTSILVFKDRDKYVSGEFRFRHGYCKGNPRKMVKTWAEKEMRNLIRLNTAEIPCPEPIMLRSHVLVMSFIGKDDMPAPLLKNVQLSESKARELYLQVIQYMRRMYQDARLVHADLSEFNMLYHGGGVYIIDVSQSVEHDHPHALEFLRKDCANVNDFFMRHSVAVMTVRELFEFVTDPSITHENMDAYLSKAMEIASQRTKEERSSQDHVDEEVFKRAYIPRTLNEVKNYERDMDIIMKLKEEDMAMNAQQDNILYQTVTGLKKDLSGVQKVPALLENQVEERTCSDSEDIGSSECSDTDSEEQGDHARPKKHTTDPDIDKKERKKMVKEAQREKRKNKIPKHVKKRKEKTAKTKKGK
Assay: KinomeScan competition binding assay, dose-response
Conditions: DiscoverX; Hill equation fit
pKd: −log10 of the molar value.

[
  {
    "compound": "C[C@@H]1CC(=O)NN=C1c1ccc(NN=C(C#N)C#N)cc1 [levosimendan]",
    "pKd": 6.09
  }
]

====

test system: EB2; assay: cells; design: species or system panel of human cancer cell lines; Eurofins OncoPanel proliferation; nuclei count by high-content fluorescence imaging, 10-point dose response; details: Homo sapiens, EB2, 72 h; cell count, curve inflection point, 3 days
endpoint.name: EC50

[
  {
    "smiles.string": "C[C@@H]1CC(=O)NN=C1c1ccc(NN=C(C#N)C#N)cc1",
    "assayed.target": "EB2",
    "value.observed": "34.4 µM"
  }
]

====

test system: NCI-H292; experiment: cells; design: species or system panel of human cancer cell lines; Eurofins OncoPanel proliferation; nuclei count by high-content fluorescence imaging, 10-point dose response; conditions: Homo sapiens, NCI-H292, 72 h; cell count, 50% of maximum possible response, 3 days
pIC50: −log10 of the molar value.

[
  {
    "smiles.string": "C[C@@H]1CC(=O)NN=C1c1ccc(NN=C(C#N)C#N)cc1",
    "assayed.target": "NCI-H292",
    "pIC50": 4.39
  }
]

====

system: D341 Med; assay: cells; set-up: species or system panel of human cancer cell lines; Eurofins OncoPanel proliferation; nuclei count by high-content fluorescence imaging, 10-point dose response; details: D341 Med, 72 h; cell count, curve inflection point, 3 days

[
  {
    "smiles.string": "C[C@@H]1CC(=O)NN=C1c1ccc(NN=C(C#N)C#N)cc1",
    "EC50 / µM": 73.8
  }
]

====

test system: DOHH-2; assay: cells; set-up: species or system panel of human cancer cell lines; Eurofins OncoPanel proliferation; nuclei count by high-content fluorescence imaging, 10-point dose response; conditions: Homo sapiens, DOHH-2, 72 h; cell count, 50% of maximum possible response, 3 days
pIC50: −log10 of the molar value.

[
  {
    "compound": "C[C@@H]1CC(=O)NN=C1c1ccc(NN=C(C#N)C#N)cc1 [levosimendan]",
    "pIC50": 4.80
  }
]

Data origin, for the record: paper PMC6576746
